meta.source: patent US6323001A

# target: Tre6Pase activity of intact trehalose synthase (Saccharomyces cerevisiae, UniProt P31688)
# Construct: Intact trehalose synthase was purified from commercial baker's yeast
# Sequence (P31688 1-896): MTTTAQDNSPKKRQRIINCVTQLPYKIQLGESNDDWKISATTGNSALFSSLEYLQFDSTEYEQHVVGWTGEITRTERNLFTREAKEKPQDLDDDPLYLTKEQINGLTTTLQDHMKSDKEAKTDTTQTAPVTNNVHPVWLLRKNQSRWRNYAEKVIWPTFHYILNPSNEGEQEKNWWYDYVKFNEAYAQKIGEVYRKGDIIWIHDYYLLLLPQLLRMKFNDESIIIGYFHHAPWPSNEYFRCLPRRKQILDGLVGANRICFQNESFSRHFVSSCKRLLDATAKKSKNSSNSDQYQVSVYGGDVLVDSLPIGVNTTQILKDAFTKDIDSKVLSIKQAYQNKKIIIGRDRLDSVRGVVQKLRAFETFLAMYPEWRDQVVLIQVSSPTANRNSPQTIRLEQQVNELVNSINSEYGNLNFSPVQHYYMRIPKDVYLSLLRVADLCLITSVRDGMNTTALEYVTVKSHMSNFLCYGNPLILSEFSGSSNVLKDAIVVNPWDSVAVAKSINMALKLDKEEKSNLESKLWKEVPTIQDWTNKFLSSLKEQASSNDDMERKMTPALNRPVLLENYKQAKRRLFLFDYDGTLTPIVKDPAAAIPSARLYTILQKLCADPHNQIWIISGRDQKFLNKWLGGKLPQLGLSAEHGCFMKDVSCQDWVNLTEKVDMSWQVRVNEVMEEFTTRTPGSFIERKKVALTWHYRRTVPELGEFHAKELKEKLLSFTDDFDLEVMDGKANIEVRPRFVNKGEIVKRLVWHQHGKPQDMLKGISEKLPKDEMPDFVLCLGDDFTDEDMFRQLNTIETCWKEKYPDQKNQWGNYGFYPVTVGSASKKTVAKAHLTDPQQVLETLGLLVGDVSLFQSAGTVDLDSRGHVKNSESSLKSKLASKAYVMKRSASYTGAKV
# Sequence (Q00764 1-495 partner): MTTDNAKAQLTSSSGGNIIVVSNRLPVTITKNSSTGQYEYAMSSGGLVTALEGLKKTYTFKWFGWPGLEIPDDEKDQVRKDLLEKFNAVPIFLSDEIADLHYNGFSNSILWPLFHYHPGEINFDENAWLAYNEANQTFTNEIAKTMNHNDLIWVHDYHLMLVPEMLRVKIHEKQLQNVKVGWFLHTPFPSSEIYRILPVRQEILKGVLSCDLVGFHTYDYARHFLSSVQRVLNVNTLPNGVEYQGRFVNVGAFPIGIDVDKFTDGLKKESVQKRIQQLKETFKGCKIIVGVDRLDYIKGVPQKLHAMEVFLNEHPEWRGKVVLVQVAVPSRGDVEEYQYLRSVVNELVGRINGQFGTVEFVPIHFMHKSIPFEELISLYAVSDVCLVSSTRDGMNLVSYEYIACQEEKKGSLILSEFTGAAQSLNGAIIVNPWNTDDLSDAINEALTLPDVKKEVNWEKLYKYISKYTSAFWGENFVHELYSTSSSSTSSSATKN
# Sequence (P38427 1-1098 partner): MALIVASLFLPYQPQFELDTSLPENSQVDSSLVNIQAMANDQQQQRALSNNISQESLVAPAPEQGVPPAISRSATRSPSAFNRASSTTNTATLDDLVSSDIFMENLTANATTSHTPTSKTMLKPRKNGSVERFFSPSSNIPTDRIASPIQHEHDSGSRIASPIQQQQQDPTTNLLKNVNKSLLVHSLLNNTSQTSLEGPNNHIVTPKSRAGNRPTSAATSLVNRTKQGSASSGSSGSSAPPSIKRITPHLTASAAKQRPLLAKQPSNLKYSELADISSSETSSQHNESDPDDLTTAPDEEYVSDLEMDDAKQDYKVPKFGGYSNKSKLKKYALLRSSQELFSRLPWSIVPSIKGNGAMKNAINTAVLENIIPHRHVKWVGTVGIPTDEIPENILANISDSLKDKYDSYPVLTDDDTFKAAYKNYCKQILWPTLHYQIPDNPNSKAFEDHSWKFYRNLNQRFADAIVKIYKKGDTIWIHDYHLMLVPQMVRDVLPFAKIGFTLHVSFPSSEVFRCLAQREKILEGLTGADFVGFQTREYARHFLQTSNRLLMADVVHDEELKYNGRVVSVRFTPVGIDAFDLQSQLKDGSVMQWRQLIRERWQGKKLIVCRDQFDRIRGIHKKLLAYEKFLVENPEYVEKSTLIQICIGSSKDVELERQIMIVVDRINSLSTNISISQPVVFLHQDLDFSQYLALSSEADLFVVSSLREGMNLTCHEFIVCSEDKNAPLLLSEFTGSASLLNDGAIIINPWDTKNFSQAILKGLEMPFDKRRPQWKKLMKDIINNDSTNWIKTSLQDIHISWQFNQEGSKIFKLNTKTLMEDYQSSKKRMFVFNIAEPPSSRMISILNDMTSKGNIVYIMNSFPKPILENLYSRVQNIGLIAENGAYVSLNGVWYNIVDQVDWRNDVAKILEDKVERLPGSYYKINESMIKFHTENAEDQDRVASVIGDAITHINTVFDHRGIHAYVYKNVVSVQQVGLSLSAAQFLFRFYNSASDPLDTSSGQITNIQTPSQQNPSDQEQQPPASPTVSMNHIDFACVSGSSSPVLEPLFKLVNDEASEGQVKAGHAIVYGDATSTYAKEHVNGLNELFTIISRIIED
# experiment.description: Tre6Pase assay of intact trehalose synthase
# measurement.setup: initial rates, intact enzyme; read-out: half maximal activation of Tre6Pase by phosphate
pEC50: −log10 of the molar value.

{"molecule": "O=P(O)(O)O [phosphate, K phosphate]", "pEC50": 3.22}
